# LRRK2 pIC50 values compiled below
- TESTED_TARGET: GST tagged truncated human mutant G2019S LRRK2 (Homo sapiens (Human), UniProt Q5S007, G2019S)
- Sequence (Q5S007 970-2527 G2019S): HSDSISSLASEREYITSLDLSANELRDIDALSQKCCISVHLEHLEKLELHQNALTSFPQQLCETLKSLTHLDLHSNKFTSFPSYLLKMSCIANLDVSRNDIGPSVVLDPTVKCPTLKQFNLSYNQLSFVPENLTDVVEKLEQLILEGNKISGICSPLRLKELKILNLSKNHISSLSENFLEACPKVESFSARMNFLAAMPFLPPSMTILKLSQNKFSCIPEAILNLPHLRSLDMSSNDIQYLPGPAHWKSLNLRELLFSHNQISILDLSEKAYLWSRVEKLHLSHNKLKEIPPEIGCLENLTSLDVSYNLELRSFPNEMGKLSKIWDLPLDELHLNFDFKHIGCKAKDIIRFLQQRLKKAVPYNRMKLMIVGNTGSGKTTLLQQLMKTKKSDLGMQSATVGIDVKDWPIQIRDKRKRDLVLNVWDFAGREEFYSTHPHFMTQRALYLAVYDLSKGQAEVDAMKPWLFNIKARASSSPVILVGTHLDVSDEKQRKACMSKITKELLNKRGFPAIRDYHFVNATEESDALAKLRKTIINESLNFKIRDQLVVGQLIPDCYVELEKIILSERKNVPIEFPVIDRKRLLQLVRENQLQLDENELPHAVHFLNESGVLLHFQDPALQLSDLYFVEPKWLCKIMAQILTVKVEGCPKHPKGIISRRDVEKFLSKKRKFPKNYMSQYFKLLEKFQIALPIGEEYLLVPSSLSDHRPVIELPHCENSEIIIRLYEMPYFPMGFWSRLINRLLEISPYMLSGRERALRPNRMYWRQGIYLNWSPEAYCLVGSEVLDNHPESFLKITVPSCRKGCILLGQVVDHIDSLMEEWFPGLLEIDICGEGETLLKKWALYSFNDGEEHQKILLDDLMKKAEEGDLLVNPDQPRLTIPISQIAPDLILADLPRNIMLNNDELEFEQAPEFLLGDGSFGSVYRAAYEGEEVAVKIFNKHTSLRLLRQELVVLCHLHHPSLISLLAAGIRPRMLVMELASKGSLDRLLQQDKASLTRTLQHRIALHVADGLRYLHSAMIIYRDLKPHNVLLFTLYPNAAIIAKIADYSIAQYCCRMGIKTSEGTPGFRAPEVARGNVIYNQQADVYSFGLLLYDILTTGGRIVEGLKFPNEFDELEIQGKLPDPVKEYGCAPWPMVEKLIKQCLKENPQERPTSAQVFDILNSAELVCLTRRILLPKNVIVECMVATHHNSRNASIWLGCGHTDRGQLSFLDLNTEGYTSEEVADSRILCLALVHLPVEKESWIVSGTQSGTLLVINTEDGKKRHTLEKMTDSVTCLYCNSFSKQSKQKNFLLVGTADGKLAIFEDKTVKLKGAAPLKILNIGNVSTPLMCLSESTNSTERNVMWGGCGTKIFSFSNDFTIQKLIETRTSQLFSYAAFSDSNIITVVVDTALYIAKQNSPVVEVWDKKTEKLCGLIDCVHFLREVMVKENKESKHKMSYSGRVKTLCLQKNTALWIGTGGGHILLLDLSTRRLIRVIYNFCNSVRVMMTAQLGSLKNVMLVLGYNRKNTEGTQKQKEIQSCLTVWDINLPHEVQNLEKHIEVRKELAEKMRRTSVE
- TEST_DESCRIPTION: LRRK2 Km ATP LanthaScreen Assay
- Type: biochemical
- APPLIED_CONDITIONS: G2019S LRRK2, 134 μM ATP (Km ATP), mean values

# COMPOUND, LRRK2 pIC50
rows = [
    ("Cn1ncc(Nc2ncc3cc(Cl)c(C4CCN([C@]5(C)COC[C@@H]5O)CC4)cc3n2)c1C(F)F (single isomer, unassigned)", ">9.20"),
    ("Cc1nsc(Nc2ncc3cc(Cl)c([C@@H]4CCN(C5COC[C@@H]5O)C[C@H]4F)cc3n2)c1Cl (single isomer, unassigned)", 7.65),
    ("CC1(n2ncc(Nc3ncc4cc(Cl)c(C5(F)CCN(C6COC6)CC5)cc4n3)c2Cl)CC1", ">9.20"),
    ("CC1(N2CCC(n3ncc(Nc4ncc5cc(Cl)c(C6CC6(F)F)cc5n4)c3Cl)C(F)C2)COC1 (single isomer, unassigned) [Ex-3.1]", 7.54),
    ("[2H]C1(N2CCC(c3cc4nc(Nc5cnn(CC(C)(C)O)c5Cl)ncc4cc3Cl)CC2)COC1", ">9.20"),
    ("Cc1cc2cnc(Nc3cnn(C)c3Cl)nc2cc1[C@@H]1CCN([C@@H]2COC[C@@H]2O)C[C@H]1F (single isomer, unassigned)", ">9.20"),
]

----------
- TESTED_TARGET: GST tagged truncated human mutant G2019S LRRK2 (Homo sapiens (Human), UniProt Q5S007, G2019S)
- TEST_DESCRIPTION: LRRK2 Km ATP LanthaScreen Assay
- Format: biochemical
- APPLIED_CONDITIONS: G2019S LRRK2, 134 μM ATP (Km ATP), mean values; read-out: LRRK2 pIC50 (converted)
REPORTED_METRIC: log10 of IC50 (log10 of the value in nM)

# COMPOUND, log10 of IC50
records = [
    ("Cc1c(Nc2ncc3cc(Cl)c(C4CCN(C5(C)COC5)CC4)cc3n2)cnn1C1CC1(F)F (single isomer, unassigned) [Ex-2.29]", 0.22),
    ("Cc1c(Nc2ncc3cc(Cl)c(C4CCN(C5(C)COC5)CC4)cc3n2)cnn1C1CC1(F)F (single isomer, unassigned) [Ex-2.30]", -0.19),
    ("CC(O)(Cn1ncc(Nc2ncc3cc(Cl)c(C4CCN(C5COC5)CC4)cc3n2)c1Cl)C(F)(F)F (single isomer, unassigned) [Ex-8.27]", -0.07),
    ("C[C@H]1CC(c2cc3nc(Nc4cnn(C5CC5)c4Cl)ncc3cc2Cl)CCN1C1COC1 (single isomer, unassigned)", -0.13),
    ("Cc1nsc(Nc2ncc3cc(Cl)c(C4CCN(C5CCOC5)CC4)cc3n2)c1Cl (single isomer, unassigned) [Ex-8.19]", 0.06),
    ("Cc1c(Nc2ncc3cc(Cl)c(C4CCN(CC(O)CC(F)(F)F)CC4)cc3n2)cnn1C1CC1 (single isomer, unassigned) [Ex-4.192]", 0.24),
    ("Cc1c(Nc2ncc3cc(Cl)c(C4CCN(CC(O)Cc5ccccc5)CC4)cc3n2)cnn1C1CC1 (single isomer, unassigned) [Ex-4.218]", 1.14),
    ("Cc1c(Nc2ncc3cc(Cl)c(C4CCN(C5CCCC5(F)F)CC4)cc3n2)cnn1C1CC1 (single isomer, unassigned) [Ex-1.22]", 0.90),
    ("Cn1nc(Cl)cc1Nc1ncc2cc(Cl)c(C3CCN([C@@]4(C)COC[C@H]4O)CC3)cc2n1 (single isomer, unassigned)", -0.11),
    ("Clc1cc2cnc(Nc3cnn(C4CC4)c3Cl)nc2cc1C1CCN(C2CCOC2)CC1 (single isomer, unassigned) [Ex-4.48]", -0.05),
]
